# key: entry, value: IC50
Target: CCK receptors of guinea-pig brain (Cavia porcellus, UniProt H0VZC5)
Construct: of guinea-pig brain membranes; from tissue; host or cells: guinea-pig brain membranes (males; animals from COB LABO)
Sequence (H0VZC5 1-426): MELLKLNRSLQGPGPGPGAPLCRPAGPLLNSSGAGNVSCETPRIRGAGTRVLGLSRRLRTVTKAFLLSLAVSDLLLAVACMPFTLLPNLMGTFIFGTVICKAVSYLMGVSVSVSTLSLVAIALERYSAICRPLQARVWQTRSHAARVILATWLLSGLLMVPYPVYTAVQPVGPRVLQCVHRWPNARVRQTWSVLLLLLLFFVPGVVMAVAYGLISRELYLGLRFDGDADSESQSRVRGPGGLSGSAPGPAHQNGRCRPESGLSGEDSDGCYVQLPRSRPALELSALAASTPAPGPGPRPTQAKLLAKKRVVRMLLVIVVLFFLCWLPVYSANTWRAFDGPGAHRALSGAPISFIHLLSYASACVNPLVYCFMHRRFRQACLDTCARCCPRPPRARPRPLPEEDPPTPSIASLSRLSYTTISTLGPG
Experiment: Inhibition of binding of sulphated [125I]-CCK8 to receptors of guinea-pig brain membranes
Text: of guinea-pig brain membranes (males, COB LABO, 325-350 g) according to the protocol described by INNIS R. B. and SNYDER S. M., Eur. J. Pharmacol., 65, 123-124, 1980.
Express it in µM; write the number only.

Worked cases, answers included:
compound | target-of-assay | recorded-value
O=C(N[C@H]1N=C(c2ccccc2)c2cccc3c2N(CC3)C1=O)c1cc2ccccc2[nH]1 [Ie] | CCK receptors of guinea-pig brain (Cavia porcellus, UniProt H0VZC5) | 0.477
O=C(NC1N=C(c2ccccc2)c2cccc3c2N(CC3)C1=O)c1cc2ccccc2[nH]1 (centres unmarked) [Ia] | CCK receptors of guinea-pig brain (Cavia porcellus, UniProt H0VZC5) | 1.11
O=C(N[C@@H]1N=C(c2ccccc2)c2cccc3c2N(CC3)C1=O)c1cc2ccccc2[nH]1 [If] | CCK receptors of guinea-pig brain (Cavia porcellus, UniProt H0VZC5) | 24
O=C(NC1N=C(c2ccccc2)c2cccc3c2N(CCC3)C1=O)c1cc2ccccc2[nH]1 (centres unmarked) [In] | CCK receptors of guinea-pig brain (Cavia porcellus, UniProt H0VZC5) | 0.407

# input for lookup
[Q] May I ask what IC50 has been recorded for O=C(NC1N=C(c2ccccc2F)c2cccc3c2N(CC3)C1=O)c1cc2ccccc2[nH]1 (centres unmarked) [Ig] ?
[A] 0.366

----------
Biological target: CCK receptors of rat pancreas (Rattus norvegicus)
Construct: of rat pancreas plasma membranes; from tissue; host or cells: rat pancreas plasma membranes (SD50 males; animals from IFFA CREDO)
Sequence (P30551 whole entry): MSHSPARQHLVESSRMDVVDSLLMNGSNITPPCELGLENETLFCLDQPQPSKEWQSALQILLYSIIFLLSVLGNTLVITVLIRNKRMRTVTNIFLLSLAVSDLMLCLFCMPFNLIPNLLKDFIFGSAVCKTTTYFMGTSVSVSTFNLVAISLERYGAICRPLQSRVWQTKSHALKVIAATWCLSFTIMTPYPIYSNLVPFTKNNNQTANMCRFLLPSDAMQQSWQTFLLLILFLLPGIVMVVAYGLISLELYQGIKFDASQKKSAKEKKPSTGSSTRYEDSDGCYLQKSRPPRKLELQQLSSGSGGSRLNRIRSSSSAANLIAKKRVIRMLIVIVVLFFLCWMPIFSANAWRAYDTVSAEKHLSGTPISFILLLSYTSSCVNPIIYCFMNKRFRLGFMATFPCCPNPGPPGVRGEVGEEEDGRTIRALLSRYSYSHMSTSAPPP
Assay: Inhibition of binding of sulphated [125I]-CCK8 to receptors of rat pancreas plasma membranes
Settings: guinea-pig brain / rat pancreas
Flag rule - ratio of the IC50 for the brain receptors to the IC50 for the pancreas receptors less than 200 flags Satisfied; the remaining entries get Not satisfied.

// known answers, use as guide
compound | label
O=C(N[C@H]1N=C(c2ccccc2)c2cccc3c2N(CC3)C1=O)c1cc2ccccc2[nH]1 | Not satisfied
O=C(NC1N=C(c2ccccc2F)c2cc(Cl)cc3c2N(CC3)C1=O)c1cc2cc(Cl)ccc2[nH]1 (stereo not drawn) | Not satisfied
O=C(NC1N=C(c2ccccc2)c2cccc3c2N(CC3)C1=O)c1cc2ccccc2[nH]1 (stereo not drawn) | Not satisfied
O=C(NC1N=C(c2ccccc2F)c2cc(Cl)cc3c2N(CC3)C1=O)c1cc(Cl)cc(Cl)c1 (stereo not drawn) | Not satisfied

[Q] Is the reported ratio of the IC50 for the brain receptors to the IC50 for the pancreas receptors for O=C(NC1N=C(c2ccccc2)c2cccc3c2N(CCC3)C1=O)c1cc2ccccc2[nH]1 (stereo not drawn) strictly below 200?
[A] Satisfied

[Q] Is the reported ratio of the IC50 for the brain receptors to the IC50 for the pancreas receptors for "O=C(N[C@@H]1N=C(c2ccccc2)c2cccc3c2N(CC3)C1=O)c1cc2ccccc2[nH]1" strictly below 200?
[A] Satisfied

[Q] Is the reported ratio of the IC50 for the brain receptors to the IC50 for the pancreas receptors for O=C(NC1N=C(c2ccccc2F)c2cccc3c2N(CC3)C1=O)c1cc2ccccc2[nH]1 (stereo not drawn) strictly below 200?
[A] Not satisfied

[Q] Is the reported ratio of the IC50 for the brain receptors to the IC50 for the pancreas receptors for O=C(NC1N=C(c2ccccc2)c2cccc3c2N(CC3)C1=O)c1ccc(Cl)cc1 (stereo not drawn) strictly below 200?
[A] Satisfied
